# PROTOCOL_TEXT: Permeability in human Caco2 cells
# Format: ADME, cell-based
# COND: Caco-2, read-out: permeability
OUTCOME_MEASURE: Papp (×10⁻⁶ cm/s)

I: COc1cnc(-c2ncco2)c2[nH]cc(C(=O)C(=O)N3CCN(C(=O)c4ccccc4)CC3)c12
II: COc1cnc(-n2cc(C)nn2)c2[nH]cc(C(=O)C(=O)N3CCN(C(=O)c4ccccc4)CC3)c12
### Prompt Min Papp? I | II Kindly give the label for the entry you pick.
### Response I

A: COc1cnc(-n2cc(F)cn2)c2[nH]cc(C(=O)C(=O)N3CCN(C(=O)c4ccccc4)CC3)c12
B: COCc1ncn(-c2ncc(OC)c3c(C(=O)C(=O)N4CCN(C(=O)c5ccccc5)[C@H](C)C4)c[nH]c23)n1
### Prompt Min Papp? A | B Kindly give the label for the entry you pick.
### Response B
(B: 2.2 ×10⁻⁶ cm/s, A: 19.5 ×10⁻⁶ cm/s)

1: COc1cnc(-c2cccs2)c2[nH]cc(C(=O)C(=O)N3CCN(C(=O)c4ccccc4)CC3)c12
2: COc1cnc(-n2nccc2C)c2[nH]cc(C(=O)C(=O)N3CCN(C(=O)c4ccccc4)CC3)c12
### Prompt Out of 1 and 2 , name the one with the higher Papp. Kindly give the label for the entry you pick.
### Response 2
(2: 21.6 ×10⁻⁶ cm/s, 1: 6.6 ×10⁻⁶ cm/s)

I: COc1cnc(-n2ccnn2)c2[nH]cc(C(=O)C(=O)N3CCN(C(=O)c4ccccc4)CC3)c12
II: COc1cnc(-c2ccsc2)c2[nH]cc(C(=O)C(=O)N3CCN(C(=O)c4ccccc4)CC3)c12
III: COc1cnc(-c2ccccn2)c2[nH]cc(C(=O)C(=O)N3CCN(C(=O)c4ccccc4)CC3)c12
### Prompt Rank ascending by Papp. Sort the labels as requested; that list is your answer.
### Response II, I, III
(II: 3.9 ×10⁻⁶ cm/s, I: 7.8 ×10⁻⁶ cm/s, III: 13.4 ×10⁻⁶ cm/s)
